Provide the recorded TGI for the entries that follow.
tested on: U251 CNS; experiment: NCI tumour cell line growth inhibition, 48 h
Numbers only, in µM.

For orientation, consider the following solved cases.
1. CC(C)NC(=O)OCc1c(COC(=O)NC(C)C)n(C)c2c1ccc1ccsc12    35.8
2. CN(C)C=Nc1ccc2c3c(cccc13)-c1ccccc1-2    26.2
3. CN1CCN(CCOc2ccc(-c3cnc4c(-c5cccc(F)c5F)cnn4c3)cc2)CC1    2.94

Take each entry in turn and give its TGI.
1. O=C1/C(=C/c2ccc(Cl)cc2Cl)CN(S(=O)(=O)c2ccccc2)C/C1=C\c1ccc(Cl)cc1Cl
2. O=C1CC(Cl)c2c1csc2Br (configuration not stated)
3. Cc1cc2nc(CS)[nH]c2cc1C
4. Oc1c(CNCCCN2CCCC2)cc(Cl)c2cccnc12

1: 0.351; 2: 30.4; 3: 30; 4: 17

Quick batch: TGI for everything below.
1. CN(C)c1ccc2nc3ccc(=[N+](C)C)c([N+](=O)[O-])c-3sc2c1
2. O=C1CNN=C(CSc2nc3ccc(I)cc3c(=O)n2Cc2ccccc2)N1

1. 11.1
2. 52
